pIC50: −log10 of the molar value.
Let's go through some pIC50 measurements on human Smo (amino acids 181-787) (Homo sapiens, UniProt Q99835) together.
Sequence (Q99835 181-787): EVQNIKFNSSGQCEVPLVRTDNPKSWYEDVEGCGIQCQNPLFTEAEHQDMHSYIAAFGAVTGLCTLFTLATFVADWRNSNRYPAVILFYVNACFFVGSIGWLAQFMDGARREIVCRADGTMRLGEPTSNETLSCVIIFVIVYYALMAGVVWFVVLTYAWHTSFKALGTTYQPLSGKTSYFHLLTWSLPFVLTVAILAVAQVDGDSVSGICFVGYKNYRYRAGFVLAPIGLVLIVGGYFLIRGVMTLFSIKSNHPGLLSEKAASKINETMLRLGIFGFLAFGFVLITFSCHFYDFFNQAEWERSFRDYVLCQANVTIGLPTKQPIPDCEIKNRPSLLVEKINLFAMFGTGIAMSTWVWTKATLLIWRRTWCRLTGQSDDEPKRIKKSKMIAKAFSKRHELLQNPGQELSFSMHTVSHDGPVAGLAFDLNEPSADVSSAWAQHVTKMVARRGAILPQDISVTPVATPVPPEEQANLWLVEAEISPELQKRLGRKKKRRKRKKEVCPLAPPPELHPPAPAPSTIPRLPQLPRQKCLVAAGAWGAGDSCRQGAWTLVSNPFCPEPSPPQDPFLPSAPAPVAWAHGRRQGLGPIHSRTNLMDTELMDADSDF
MEASURE: pIC50

- CNS(=O)(=O)C1CCN(c2cc(-c3nc4ccccc4n3C)c(Cl)cn2)C1 (centres unmarked): 7.43
- Cn1c(-c2cc(NCCO)ncc2Cl)nc2ccccc21: 6.97
- Cn1c(-c2cc(N3CCOCC3)ncc2Cl)nc2ccccc21: 7.66
- CNC(=O)NC1CCN(c2cc(-c3nc4ccccc4n3C)c(Cl)cn2)C1 (centres unmarked): 7.08
- Cn1c(-c2cc(N3C[C@H]4CC[C@@H](C3)N4S(C)(=O)=O)ncc2Cl)nc2ccccc21: 7.77

----------
inhibition at 0.05 µM reference
TEST_SYSTEM: human Smo (amino acids 181-787) (Homo sapiens, UniProt Q99835)
Construct: expressed in transfected cells; membrane preparation
EXPERIMENT_SUMMARY: Smo radioligand competition binding assay (displacement of 3H-PF-03451358 from HEK293 membranes)
EXPERIMENTAL_CONDITIONS: 0.05 μM test compound; displacement of 3H-PF-03451358; read-out: SMO % inh. @ 0.05 μM
MEASURE: inhibition at 0.05 µM (%)

* Cn1c(-c2cc(N3CC(c4ncc[nH]4)C3)ncc2Cl)nc2ccccc21 | 48
* Cn1c(-c2cc(N3CCC(N4CCC(O)CC4)CC3)ncc2Cl)nc2ccccc21 | 64
* Cc1nnc2n1CCN(c1cc(-c3nc4ccccc4n3C)c(Cl)cn1)CC2 | 94
* Cn1c(-c2cc(N3C[C@H]4CNS(=O)(=O)[C@H]4C3)ncc2Cl)nc2ccccc21 (stereo in doubt) | 98
* CNC(=O)N1CCN(c2cc(-c3nc4ccccc4n3C)ccn2)CC1 | 78
* Cn1c(-c2cc(N3CCCn4cnc(CO)c4C3)ncc2Cl)nc2ccccc21 | 74
* Cn1c(-c2cc(N3CCCN(C4=NCCC(=O)N4)CC3)ncc2Cl)nc2ccccc21 | 53
* CC(=O)N1CCN(c2cc(-c3nc4ccccc4n3C)c(Cl)cn2)C[C@@H]1C | 91
* CNC(=O)N1CCN(c2ncc(Cl)c(-c3nc4ccccc4n3C)n2)CC1 | 95
* CNC(=O)N1CCN(c2nccc(-c3nc4ccccc4n3C)n2)CC1 | 54
* CCn1nnnc1C1CN(c2cc(-c3nc4ccccc4n3C)c(Cl)cn2)CCO1 (stereo not shown) | 94
* Cn1c(-c2cc(N3CCC4(CC3)CNC(=O)O4)ncc2Cl)nc2ccccc21 | 87
* COC(=O)N1CCN(c2ncc(Cl)c(-c3nc4ccccc4n3C)n2)CC1 | 96
* Cn1c(-c2cc(N3C[C@@H](CO)C(C)(CO)C3)ncc2Cl)nc2ccccc21 (stereo in doubt) | 86
* CN(C)CC(=O)N1CCN(c2ncc(Cl)c(-c3nc4ccccc4n3C)n2)CC1 | 95
* CC(C)NC(=O)NC1CN(c2cc(-c3nc4ccccc4n3C)c(Cl)cn2)C1 | 97
* Cc1cnc(N2CCN(S(C)(=O)=O)CC2)cc1-c1nc2ccccc2n1C | 97
* Cn1c(-c2cc(N3CCN(S(=O)(=O)CC(C)(C)O)CC3)ncc2F)nc2ccccc21 | 94
* Cn1c(-c2cc(N3CC(c4ccn[nH]4)C3)ncc2Cl)nc2ccccc21 | 62
* CNS(=O)(=O)C1CCN(c2cc(-c3nc4ccccc4n3C)c(Cl)cn2)C1 (stereo not shown) | 80
* Cn1c(-c2cc(N3CCC(CS(N)(=O)=O)CC3)ncc2Cl)nc2ccccc21 | 95
* Cn1c(-c2cc(N3CCN(S(C)(=O)=O)CC3)ncc2F)nc2ccccc21 | 97
* Cn1c(-c2ccnc(N3CCN(S(C)(=O)=O)CC3)c2)nc2ccccc21 | 78
* CC(=O)NC1CCN(c2cc(-c3nc4ccccc4n3C)c(Cl)cn2)C1 (stereo in doubt) [Example A-116] | 68
* Cn1c(-c2cc(N3CCN(C(=O)CO)CC3)ncc2F)nc2ccccc21 | 96
* CC(=O)NC1CCN(c2cc(-c3nc4ccccc4n3C)ccn2)CC1 | 81
* Cn1c(-c2cc(N3CCC(S(C)(=O)=O)C3)ncc2Cl)nc2ccccc21 (stereo not shown) | 82
* Cc1noc(CC2CN(c3cc(-c4nc5ccccc5n4C)c(Cl)cn3)CCO2)n1 (stereo not shown) | 102
* Cn1c(-c2ccnc(N3CCNCC3)c2)nc2ccccc21 | 54
* CN(CCN)c1cc(-c2nc3ccccc3n2C)c(Cl)cn1 | 50
* CCS(=O)(=O)N1CCN(c2cc(-c3nc4ccccc4n3C)c(Cl)cn2)CC1 | 93
* CN1CCN(C2CCN(c3cc(-c4nc5ccccc5n4C)c(Cl)cn3)CC2)CC1 | 72
* CNC(=O)N(C)C1CCN(c2cc(-c3nc4ccccc4n3C)c(Cl)cn2)C1 (stereo not shown) | 85
* Cn1c(-c2nc(N3CCN(C(=O)CO)CC3)ncc2Cl)nc2ccccc21 | 98

----------
Reported inhibition at 0.05 µM by item:
TEST_SYSTEM: human Smo (amino acids 181-787) (Homo sapiens, UniProt Q99835)
Construct: expressed in transfected cells; membrane preparation
EXPERIMENT_SUMMARY: Smo radioligand competition binding assay (displacement of 3H-PF-03451358 from HEK293 membranes)
EXPERIMENTAL_CONDITIONS: 0.05 μM test compound; displacement of 3H-PF-03451358; read-out: SMO % inh. @ 0.05 μM
MEASURE: inhibition at 0.05 µM (%)

- Cn1c(-c2ccnc(N3CCC(NS(C)(=O)=O)CC3)c2)nc2ccccc21: 99
- Cn1c(-c2cc(N3CCC(C#N)CC3)ncc2Cl)nc2ccccc21: 92
- Cn1c(-c2cc(N3CCC(C(=O)NC4CCOC4)CC3)ncc2Cl)nc2ccccc21 (centres unmarked): 102
- CNC(=O)N(C)C1CCN(c2cc(-c3nc4ccccc4n3C)c(Cl)cn2)CC1: 97
- Cn1c(-c2cc(N3CCc4[nH]ncc4C3)ncc2Cl)nc2ccccc21: 83
- CC(=O)N1CCCN(c2cc(-c3nc4ccccc4n3C)c(Cl)cn2)CC1: 100
- Cn1c(-c2cc(N3CCN(CCS(C)(=O)=O)CC3)ncc2Cl)nc2ccccc21: 99
- Cn1c(-c2cc(N3CCC(F)(F)CC3)ncc2Cl)nc2ccccc21: 87
- Cn1c(-c2cc(N3CCN(C(=O)c4ncn[nH]4)CC3)ncc2Cl)nc2ccccc21: 98
- Cn1c(-c2cc(N3CCC(OCC(=O)NC4CC4)CC3)ncc2Cl)nc2ccccc21: 96
- CC(=O)N1CCN(c2ncc(Cl)c(-c3nc4ccccc4n3C)n2)CC1: 96
- Cn1c(-c2nc(N3CCN(C(=O)CCO)CC3)ncc2Cl)nc2ccccc21: 98
- CC(=O)N(C)C1CCN(c2cc(-c3nc4ccccc4n3C)c(Cl)cn2)C1 (centres unmarked): 89
- Cn1c(-c2cc(N3CCC(C(=O)NCCO)CC3)ncc2Cl)nc2ccccc21: 93
- Cn1c(-c2cc(N3C[C@H]4CC[C@@H](C3)N4S(C)(=O)=O)ncc2Cl)nc2ccccc21: 97
- Cn1c(-c2cc(N3CCC(O)(CN4CCCC4=O)C3)ncc2Cl)nc2ccccc21 (centres unmarked): 46
- Cn1c(-c2cc(N3CCC(O)(CN4CCCC4=O)CC3)ncc2Cl)nc2ccccc21: 65

----------
Entries with reported IC50 on human Smo (amino acids 181-787) (Homo sapiens)
MEASURE: IC50 (nM)

- CNC(=O)N(C)C1CCN(c2cc(-c3nc4ccccc4n3C)c(Cl)cn2)C1 (centres unmarked): 50
- Cn1c(-c2cc(N3CCN4C[C@H](O)CC4C3)ncc2Cl)nc2ccccc21 (stereo in doubt) [Example A-60]: 27
- Cc1nc(CC2CN(c3cc(-c4nc5ccccc5n4C)c(Cl)cn3)CCO2)no1 (centres unmarked): 13
- Cc1nnc(C2CCN(c3cc(-c4nc5ccccc5n4C)c(Cl)cn3)CC2)o1: 32
- Cn1c(-c2cc(N3CCN(C(=O)C4CCOC4)CC3)ncc2Cl)nc2ccccc21 (centres unmarked): 6
- Cn1c(-c2nc(N3CCN(C(=O)CO)CC3)ncc2Cl)nc2ccccc21: 15
- Cn1c(-c2cc(N3CCNC(=O)CC3)ncc2Cl)nc2ccccc21: 9
- Cc1noc(C2CN(c3cc(-c4nc5ccccc5n4C)c(Cl)cn3)CCO2)n1 (centres unmarked): 28
- Cn1c(-c2cc(N3CCC(OCC(=O)NC4CC4)CC3)ncc2Cl)nc2ccccc21: 12
- Cn1c(-c2cc(N3CCN(CC(O)CO)CC3)ncc2Cl)nc2ccccc21 (centres unmarked): 153
- Cn1c(-c2cc(N3CCC(NS(C)(=O)=O)CC3)ncc2F)nc2ccccc21: 6
- Cn1c(-c2cc(N3CCC(O)CC3)ncc2Cl)nc2ccccc21: 8
- Cc1ccc(N2CCC(NS(C)(=O)=O)CC2)nc1-c1nc2ccccc2n1C: 11
- COCC(=O)N1CCN(c2cc(-c3nc4ccccc4n3C)c(Cl)cn2)CC1: 14
- Cn1c(-c2nc(N3CCN(S(C)(=O)=O)CC3)ncc2Cl)nc2ccccc21: 9
- Cn1c(-c2cc(N3CCC(OCCO)CC3)ncc2Cl)nc2ccccc21: 23
- COC(=O)N(C)C1CCN(c2cc(-c3nc4ccccc4n3C)c(Cl)cn2)C1 (centres unmarked): 43
